Tested on: PC-3 [JPC-3]
protocol notes: relative viability (nuclei count vs DMSO), 5 days (fraction); higher = more cells survive
study conditions: first compound 0.005 µM
relative viability values, listed per item

>  <compound>
CC1(C)CCC(c2ccc(Cl)cc2)=C(CN2CCN(c3ccc(C(=O)NS(=O)(=O)c4ccc(N[C@H](CCN5CCOCC5)CSc5ccccc5)c(S(=O)(=O)C(F)(F)F)c4)cc3)CC2)C1 [Navitoclax] + O=C(c1cc(Cc2n[nH]c(=O)c3ccccc23)ccc1F)N1CCN(C(=O)C2CC2)CC1 [Olaparib] (partner 8 µM)

>  <relative viability>
1.1

$$$$
>  <compound>
CC1(C)CCC(c2ccc(Cl)cc2)=C(CN2CCN(c3ccc(C(=O)NS(=O)(=O)c4ccc(N[C@H](CCN5CCOCC5)CSc5ccccc5)c(S(=O)(=O)C(F)(F)F)c4)cc3)CC2)C1 [Navitoclax] + Cc1cc(Nc2cc(N3CCN(C)CC3)nc(Sc3ccc(NC(=O)C4CC4)cc3)n2)n[nH]1 [Tozasertib] (partner 0.1 µM)

>  <relative viability>
0.846

$$$$
>  <compound>
CC1(C)CCC(c2ccc(Cl)cc2)=C(CN2CCN(c3ccc(C(=O)NS(=O)(=O)c4ccc(N[C@H](CCN5CCOCC5)CSc5ccccc5)c(S(=O)(=O)C(F)(F)F)c4)cc3)CC2)C1 [Navitoclax] + Cc1nc(NC(=O)N2CCC[C@H]2C(N)=O)sc1-c1ccnc(C(C)(C)C(F)(F)F)c1 [Alpelisib] (partner 2 µM)

>  <relative viability>
1.04

$$$$

Just for reference, the supplement of paper PMC10307832 is where these values come from.
